Catalogue of molecules with associated %Inh
- Test system: ULK3
- assay setup: concentration: 1 μM, replicates: in singlicate; n = 1;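 also: KINOMEscan kinase panel screen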
// return numeric value only (unit: %, not printed)

Example entries begin here.
Quote %Inh with test system ULK3 for COc1ccccc1CNC(=O)c1cc(C(=O)c2ccccc2C)c[nH]1
9

Quote %Inh with test system ULK3 for Cc1cc(NCC(c2ccccc2)c2ccccc2)nc(NCc2ccc(C(F)(F)F)cc2)n1
0

Quote %Inh with test system ULK3 for Cl.Oc1ccc(-c2nc(-c3ccccc3)[nH]c2-c2ccncc2)cc1
6

Quote %Inh with test system ULK3 for COc1cccc(-c2cc(-c3c[nH]nc3-c3ccccn3)ccn2)c1
7

Quote %Inh with test system ULK3 for COc1ccc(Nc2nccc(NCCNC(=O)Nc3ccccc3F)n2)cc1
37

***
Quote %Inh with test system ULK3 for COc1ccc(Nc2nccc(-c3cccc(NC(=O)c4cc5cc(F)ccc5[nH]4)c3)n2)cc1
23

Quote %Inh with test system ULK3 for COC(=O)c1c(-c2ccccc2)c2cc(C(=O)O)ccc2c(=O)n1Cc1ccccc1
0

Quote %Inh with test system ULK3 for Cc1cc(N2Cc3ccccc3C2)nc(Nc2ccc(S(=O)(=O)N3CCOCC3)cc2)n1.Cl
0

Quote %Inh with test system ULK3 for CCCc1ccc(S(=O)(=O)NC2CCN(c3ccnc(Nc4ccc(F)cc4)n3)C2)cc1 (stereo not shown)
4

Quote %Inh with test system ULK3 for CC(C)(C)c1ccc(C(=O)Nc2cn3cc(Cl)ccc3n2)cc1
10

Quote %Inh with test system ULK3 for O=c1cc(N2CCOCC2)nc2n(Cc3cccc(Cl)c3Cl)ccn12
0

Quote %Inh with test system ULK3 for CN1C(=O)C(Nc2ccc(Cl)c(C(=O)O)c2)=C(c2ccc(Cl)cc2)C1=O
24

Quote %Inh with test system ULK3 for CCn1c(-c2ccccn2)nc2cnccc21
0

Quote %Inh with test system ULK3 for CC(=O)Nc1nc2cnc(Nc3cc(NC(=O)c4cccc(CCC#N)c4)ccc3C)nc2s1
0

Quote %Inh with test system ULK3 for COc1cc2ncn(-c3cc(OCC4CCCO4)c(C(N)=O)s3)c2cc1OC (stereo not shown)
0

Quote %Inh with test system ULK3 for Fc1cccc(COc2nnc(-c3ccc4c(c3)CCO4)o2)c1
0

Quote %Inh with test system ULK3 for Cc1ccc(NC(=O)Nc2cccc(Cl)c2)cc1-c1ccc(C(=O)Nc2ccncc2)cc1
5

Quote %Inh with test system ULK3 for O=C(Nc1n[nH]c2cc(-c3cccc(F)c3F)ccc12)C1CC1
4

Quote %Inh with test system ULK3 for CS(=O)(=O)c1ccc(-c2nc3n(c2-c2ccncc2)CCC3)cc1
11

---

Catalogue of compounds with associated %Inh
- Tested on: CAMK1G
- assay setup: concentration: 1 μM, replicates: in singlicate; n = 1
// return numeric value only (unit: %, not printed)

Please give the documented %Inh of O=C(Nc1n[nH]c2nc(-c3nccs3)c(Br)cc12)C1CC1
0

***
Please give the documented %Inh of COc1ccc(Nc2nccc(-c3cccc(NC(=O)c4cc5cc(F)ccc5[nH]4)c3)n2)cc1
13

Please give the documented %Inh of CC(C)(C)c1ccc(C(=O)Nc2cn3cc(-c4cccnc4)ccc3n2)cc1
12

Please give the documented %Inh of Cl.Oc1ccc(-c2nc(-c3ccccc3)[nH]c2-c2ccncc2)cc1
2

Please give the documented %Inh of Cc1cc(N2Cc3ccccc3C2)nc(Nc2ccc(S(=O)(=O)N3CCOCC3)cc2)n1.Cl
0

Please give the documented %Inh of Cc1ccccc1-n1cnc2c(N)ncnc21
0

Please give the documented %Inh of NC(=O)c1nnc2ccccc2c1N
7

Please give the documented %Inh of COc1ccc2nc(-c3cccc(C)n3)nc(Nc3ccncc3)c2c1
0

Please give the documented %Inh of Cc1c(Cn2ccn3c(=O)cc(N4CCOCC4)nc23)cccc1C(F)(F)F
13

Please give the documented %Inh of COc1cc2nccc(Nc3ccc(NC(=O)c4ccc(C)cc4)c(O)c3)c2cc1OC.Cl
6
